# Tested on: SNB-19 CNS
# Assay: NCI-60 one-dose screen, 48 h (100 = growth as untreated, 0 = no growth, -100 = all killed)
# Test Parameters: 10 µM unless noted
About 83,000 compounds went through this panel and 20% of them were active in at least one assay; those are over-represented in the sample as a whole. Calls of active or inactive are those of the source. The calls were made as follows: active = growth percent below 10; inactive = the rest.
The following compounds are listed with their measured growth values.

Compound: Cc1cc2c([nH]1)CSc1cc(S(=O)(=O)c3ccccc3)c(=O)[nH]c1-2
growth: 37.4% [100 µM] (inactive)
--
Compound: Cc1cc(Cl)ccc1NC(=O)c1cc2ccccc2cc1O
growth: 20% (inactive)
--
Compound: O=C1/C(=C/c2ccc(Cl)cc2)COc2ccc(O)c(O)c21
growth: 24.9% (inactive)
--
Compound: CC(C)N1CN2C(=S)NC3C2N(C1)C(=S)N3C (stereo not given)
growth: 100% (inactive)
--
Compound: CC1=Nc2cnc(Nc3ccc(OCCN4CCCC4)cc3)nc2Nc2ccccc21
growth: 91.1% (inactive)
--
Compound: C#CCOc1cccc(Nc2ncnc3ccc(NC(=O)CCl)cc23)c1
growth: -23.7% (active)
--
Compound: O=CC1(C2(C=O)c3ccccc3-c3ccccc32)c2ccccc2-c2ccccc21
growth: -83% (active)
--
Compound: CCCCCC(=O)OCC(=O)O[C@@H]1C[C@]2(C(C)C)O[C@@]1(C)[C@@H]1CC[C@@H](C)[C@H]1[C@@H]2OC(=O)/C=C/c1ccccc1
growth: 87% (inactive)
--
Compound: Fc1cccc(CNc2c3ccccc3nc3ccccc23)c1F
growth: 58.5% (inactive)
--
Compound: C#CCn1cnc2c(Nc3cccc(NC(=O)C=C)c3)ncnc21
growth: 89.9% (inactive)
--
Compound: Oc1c(Cl)cc(Cl)c2ccc(Cn3cc(-c4cc(C(F)(F)F)cc(C(F)(F)F)c4)nn3)nc12
growth: 94% (inactive)
--
Compound: CCCC(=O)NC(c1ccc2c(c1)OCO2)c1ccc2cccnc2c1O (stereo not given)
growth: 29.5% (inactive)
--
Compound: CCN(c1ccc(Cl)cc1)c1nc(-c2ccc([N+](=O)[O-])cc2)cs1
growth: 95.4% (inactive)
--
Compound: COc1ccc(C(=S)N2CCN(c3ccccc3Cl)CC2)cc1OC
growth: 85.3% (inactive)
--
Compound: CC[C@@H](C(=O)[C@@H](C)[C@@H](O)[C@H](C)[C@@H]1O[C@@H]([C@@H](CC)C(=O)NCCc2ccc(F)cc2)CC[C@@H]1C)C1O[C@]2(C=CC(=O)[C@]3(CC[C@@](C)([C@H]4CC[C@](O)(CC)[C@H](C)O4)O3)O2)[C@H](C)C[C@@H]1C (stereo not given in full)
growth: 26.2% (inactive)
--
Compound: O=C1CC(N2C(=O)/C(=C/C(Cl)=C\c3ccc([N+](=O)[O-])cc3)SC2=S)C(=O)N1c1ccc(Cl)cc1 (stereo not given)
growth: 17.4% (inactive)
--
Compound: CCN(C(=O)N1CCN(c2cc3c(cc2F)c(=O)c(C(=O)O)cn3C2CC2)CC1)c1nc(-c2ccc(Cl)cc2)cs1
growth: 15.6% (inactive)
--
Compound: O=C(/C=C/c1ccccc1)c1cccc(OCCCOc2cccc(C(=O)/C=C/c3ccccc3)c2)c1
growth: 85.7% (inactive)
--
Compound: COc1ccc(C(=O)Nc2ncc(Cc3ccc(F)cc3)s2)cc1
growth: 31.2% (inactive)
--
Compound: COc1ccc(C(=O)C2C(c3ccc(OC)cc3)CN(C)C23C(=O)Nc2ccccc23)cc1 (stereo not given)
growth: 86% (inactive)
--
Compound: COc1ccc(Cc2cc(-c3ccccc3)nn(Cc3ccccc3)c2=O)cc1OC
growth: 46.5% (inactive)
--
Compound: C#CCOc1cccc(Nc2ncnc3c(NC(=O)C=C)cccc23)c1
growth: 28.1% (inactive)
--
Compound: CN1CCN(c2ccc(C(=O)Nc3cccc(C#Cc4cccc5[nH]nc(N)c45)c3)cc2C(F)(F)F)CC1
growth: -78.4% (active)
--
Compound: CCCCCCC1(C)NCCO1 (stereo not given)
growth: 94.9% (inactive)
--
Compound: N#Cc1cnc(NCCc2ccncc2)nc1-n1cnc2ccccc21
growth: 94.7% (inactive)
--
Compound: CSc1nnc(-c2cnn3c2NC(c2ccccc2)C3)n1-c1ccc(C(F)(F)F)cc1 (stereo not given)
growth: 66.9% (inactive)
--
Compound: CN(C)c1ccc(/C=C/C(=O)c2ccc(-n3cc(CN4CCN(c5cc6c(cc5F)c(=O)c(C(=O)O)cn6C5CC5)CC4)nn3)cc2)cc1
growth: 31.6% (inactive)
--
Compound: O=C1COCCN1c1ccc(Nc2nc(Cl)nc(OCc3cn(Cc4ccccc4)nn3)n2)cc1
growth: 90.3% (inactive)
--
Compound: CCOC(=O)C(=Cc1cccc(Cl)c1)C(=O)OCC
growth: 51.5% (inactive)
--
Compound: CCN(CC)c1ccc(/C=C/C(=O)c2ccc(Nc3nc(Nc4ccccc4)nc(Nc4ccccc4)n3)cc2)cc1
growth: 67.5% (inactive)
--
Compound: Cc1cc(Cl)ccc1Nc1nc(C(F)(F)F)ccc1C(=O)N/N=C/c1ccc([N+](=O)[O-])cc1
growth: 22.7% (inactive)
--
Compound: Clc1ccc(Sc2cnc(-c3ccccc3)o2)cc1
growth: 88.4% (inactive)
--
Compound: Nc1nc2c([nH]1)c1[nH]c3ccccc3c1c1[nH]c3ccccc3c21
growth: 62.4% (inactive)
--
Compound: Cc1ccc(-c2csc(NC(=O)CN3CCN(c4cc5c(cc4F)c(=O)c(C(=O)O)cn5C4CC4)CC3)n2)cc1
growth: 27.7% (inactive)
--
Compound: COc1cc(OC)cc(C2=C3CC[C@@H]4[C@H](CC[C@]5(C)C(=O)CC[C@@H]45)C3=CC3C(O)c4cccnc4N4C(=O)COC234)c1 (stereo not given in full)
growth: 92% (inactive)

* * *

# System: HT29 colon
# Assay: NCI-60 one-dose screen, 48 h
# Test Parameters: 10 µM unless noted
The panel holds about 83,000 compounds, 20% with a hit somewhere; the sample as a whole holds those more often. Active and inactive are the calls of the source. How the source made its calls: active means growth percent below 10; inactive means the rest.
Possible outcomes: active, inactive

Molecule: Cc1ccc(-c2cc(-c3ccc(Cl)cc3)nc(NC(=O)c3cccnc3)n2)cc1
Label Value: inactive

Molecule: Fc1cccc(CNc2c3ccccc3nc3ccccc23)c1F
Label Value: inactive

Molecule: N#Cc1c(-c2cccs2)cc(-c2cccnc2)[nH]c1=O
Label Value: inactive

Molecule: O=C(O)CCCN1C(=O)/C(=C/C(Cl)=C/c2ccccc2)SC1=S
Label Value: active

Molecule: Cc1cnc(C(=O)NNc2nc3sc4c(c3c(=O)n2C)C(C)CCC4)cn1 (stereo not given)
Label Value: active

Molecule: Cc1ccccc1/C=C1\CN(C(=O)OC(C)(C)C)C/C(=C\c2ccccc2C)C1=O
Label Value: active

Molecule: Cn1cc(-c2nonc2-c2c[nH]c3ccc(Br)cc23)c2cc(Br)ccc21
Label Value: inactive

Molecule: O=C(NCCCCNC(=O)OCc1ccc2c(Cl)cc(Cl)c(O)c2n1)OCc1ccc2c(Cl)cc(Cl)c(O)c2n1
Label Value: inactive

Molecule: CCCCCCC1(C)NCCO1 (stereo not given)
Label Value: inactive

Molecule: O=C(/C=C/c1cn(-c2ccccc2)nc1-c1ccc([N+](=O)[O-])cc1)c1ccc(Cl)cc1
Label Value: inactive

* * *

# System: NCI-H322M lung
# Assay: NCI-60 one-dose screen, 48 h
# Test Parameters: 10 µM unless noted
About 83,000 compounds went through this panel and 20% of them were active in at least one assay; those are over-represented in the sample as a whole. The source made the active and inactive calls. The calls were made as follows: active = growth percent below 10; inactive = the rest.
Possible outcomes: yes (active), no (inactive)

Compound: O=C1/C(=C/c2ccc(Cl)cc2)COc2ccc(O)c(O)c21
Label Value: no
--
Compound: CCOC(=O)C1=NN(c2ccccc2)C(=O)/C1=C\N1C(=O)CC(=O)NC1=S
Label Value: no
--
Compound: CN(C)CCNc1nc2c3cc(Cl)ccc3nn2c2ccccc12
Label Value: no
--
Compound: CC1=C(Nc2ccc(N3CCN(C)CC3)cc2)C(=O)c2cncnc2C1=O
Label Value: no
--
Compound: CO[C@]12C=C/C(=C(/C(=O)OCc3cccnc3)C(=O)CCCCCCCC[C@@]3(OC)C=C/C(=C(/C(=O)OCc4cccnc4)C(=O)CCCCCCCC1)O3)O2
Label Value: no
--
Compound: CC(C)CCC[C@@H](C)[C@H]1CC[C@H]2[C@@H]3CC=C4C[C@@H](C(C(=O)O)C(=O)O)CC[C@]4(C)[C@H]3CC[C@]12C
Label Value: yes
--
Compound: CCCCNC(=O)Oc1ccc(/C(=C(/CC)Cc2ccccc2)c2ccc(OCCN3CCCCCC3)cc2)cc1
Label Value: no
--
Compound: O=C(Nc1ccc(-c2nc(N3CCOCC3)c3cccn3n2)cc1)Nc1cccnc1
Label Value: yes
--
Compound: CCN(CC)CCSc1nc(-c2ccccc2)c(C#N)c(=O)[nH]1
Label Value: no
--
Compound: C#CCOc1cccc(Nc2ncnc3c(NC(=O)C=C)cccc23)c1
Label Value: no
--
Compound: Cc1ccc(Sc2nnc(/N=C3\C(=O)Nc4ccccc43)s2)cc1
Label Value: no
--
Compound: COc1ccc2[nH]cc(C(c3cc(F)cc(F)c3)c3c[nH]c4ccc(OC)cc34)c2c1
Label Value: no
--
Compound: O=C1N(Cc2ccccc2Cl)c2ccccc2C12NN=C(c1cccc(Cl)c1)S2 (configuration not stated)
Label Value: yes
--
Compound: O=S(=O)(Nc1cc(Br)c(O)c2ccccc12)c1ccc(F)cc1
Label Value: no
--
Compound: CCOC(=O)c1cnc2ccccc2c1Cl
Label Value: no
--
Compound: COC(C(=O)[C@@H](O)[C@@H](C)O)[C@@H]1Cc2cc3cc(O[C@H]4C[C@@H](O[C@H]5C[C@@H](O)[C@H](O)C(C)O5)[C@H](O)C(C)O4)c(C)c(O)c3c(O)c2C(=O)[C@H]1O[C@H]1C[C@@H](O[C@H]2C[C@@H](O[C@H]3C[C@@H](O)[C@H](OC)C(C)O3)[C@@H](O)C(C)O2)[C@H](O)C(C)O1 (some centres not stated)
Label Value: yes
--
Compound: N#CCSc1nnc2n(Cc3ccccc3)c(=O)c3c4c(sc3n12)CCCC4
Label Value: no
--
Compound: Cc1cc(Cl)ccc1Nc1nc(C(F)(F)F)ccc1C(=O)N/N=C/c1ccc([N+](=O)[O-])cc1
Label Value: yes
--
Compound: Nc1ncnc2c1N=C(c1ccc3c(c1)OCO3)CC(c1ccc([N+](=O)[O-])cc1)N2 (configuration not stated)
Label Value: no
--
Compound: C=C(C)[C@@H]1CC[C@]2(C)[C@H](CC=C3[C@@H]4[C@H](C)[C@@H](C)CC[C@]4(CO)CC[C@]32C)[C@@]1(C)CCCN
Label Value: no
--
Compound: CS(=O)(=O)C1=CN(CCO)C(=O)N2CCCN=C12
Label Value: no
--
Compound: CC(=O)OC[C@]12CCC(C)(C)C[C@H]1[C@@]1(O)[C@H](O)C[C@@H]3[C@@]4(C)CCCNC(C)(C)[C@@H]4CC[C@@]3(C)[C@]1(C)CC2
Label Value: no
--
Compound: C=CCn1c(SCC(=O)Nc2ccc(C(=O)/C=C/c3cc4cc(OC)ccc4nc3Cl)cc2)nnc1-c1ccc(Br)cc1
Label Value: no
--
Compound: CCCCNc1ccc(C#N)c(OCCN(CC)CC)c1
Label Value: no
--
Compound: O=C(/C=C/c1cccs1)c1ccc(Cl)nc1
Label Value: no
--
Compound: O=C(Nc1ncc(Cc2ccc(Cl)c(C(F)(F)F)c2)s1)c1ccc2nnsc2c1
Label Value: no
--
Compound: CCOC(=O)c1nc(Nc2ccc(NC(=O)Nc3ccc(F)cc3)cc2)c2ccccc2n1
Label Value: no
